Recorded melting point, one value per entry.
Unit °C implied. Number only.

INSERT INTO assay_data (smiles_input, value_reported) VALUES
  ('O=C(Nc1ccc(C(F)(F)F)cc1)Nc1ccno1', 178),
  ('COC(=O)c1ccc(NC(=O)Nc2ccno2)cc1', 194),
  ('CC(C)CNC(=O)Nc1ccno1', 187),
  ('O=C(Nc1ccno1)NC1CCCCC1', 180);

# evaluate next
Which melting point is reported for this compound? O=C(NCCc1ccccc1)Nc1ccno1 165

---

# Test system: DosRST pathway, CDC1551 (hspX′::GFP) reporter strain
# protocol.notes: microbe, parasite or virus in culture
# Format: cell-based
# condition: Mycobacterium tuberculosis, 144 h; CDC1551 (hspX′::GFP), 6 d; read-out: EC50 of DosRST-dependent GFP fluorescence inhibition (FI)
Known EC50 of a selection of compounds
Answer format: numeric, µM implied, no suffix.

Here are 4 compounds together with their reported answers.
INSERT INTO measurements (compound, reported_property, value_reported) VALUES
  ('COc1ccc(NC(=O)Nc2ccno2)cc1', 'EC50', 0.61),
  ('O=C(Nc1cccc(Cl)c1)Nc1ccno1', 'EC50', 0.75),
  ('O=C(Nc1ccno1)Nc1ccno1', 'EC50', 1.7),
  ('O=C(Nc1ccccc1)Nc1ccno1', 'EC50', 0.63);

Okay, now this compound:
For the compound shown here, CN(C)CCCN1C(=O)c2cccc3c(Br)ccc(c23)C1=O [HC104A] , give the reported EC50. 9.8

---

# protocol.notes: physchem
Listed compounds paired with reported solubility

Completed entries (count: 5):
INSERT INTO measurements (compound, value_reported) VALUES
  ('O=C(Nc1cccc(Cl)c1)Nc1ccno1 [MSU-39445]', '> 100 µM'),
  ('CC(C)(C)c1ccc(NC(=O)Nc2ccno2)cc1 [MSU-41442]', '> 100 µM'),
  ('O=C(Nc1ccno1)Nc1ccc(Cl)cc1Cl [HC106A]', '110 µM'),
  ('O=C(Nc1ccc(-c2ccccc2)cc1)Nc1ccno1 [MSU-41443]', '14 µM'),
  ('O=C(Nc1ccc(Cl)cc1)Nc1ccno1 [HC106F]', '> 200 µM');

Reported solubility, compound COc1ccc(NC(=O)Nc2ccno2)cc1 [MSU-39447] : ____ > 100 µM

---

# target.of.assay: DosR (Mycobacterium tuberculosis)
# Sequence (P9WMF9 whole entry, looked up): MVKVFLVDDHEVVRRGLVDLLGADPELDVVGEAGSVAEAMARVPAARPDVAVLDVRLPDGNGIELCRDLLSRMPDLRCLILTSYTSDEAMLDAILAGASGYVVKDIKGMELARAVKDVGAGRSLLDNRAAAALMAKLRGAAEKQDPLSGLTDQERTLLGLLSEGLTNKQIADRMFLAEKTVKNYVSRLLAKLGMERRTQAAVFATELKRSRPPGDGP
reported.property: IC50

# value lookup — system DosR (Mycobacterium tuberculosis), readout IC50, item CN(C)CCCN1C(=O)c2cccc3c(Br)ccc(c23)C1=O [HC104A] ~10 µM

---

// reported melting point for each item listed

Recorded melting point, per entry:
INSERT INTO measurements (smiles_input, value_reported) VALUES
  ('O=C(Nc1ccc(Cl)nc1)Nc1ccno1', '158 to 159 °C'),
  ('O=C(Nc1ccc(Cl)cn1)Nc1ccno1', '122 to 123 °C'),
  ('COc1ccc(NC(=O)Nc2ccno2)cc1', '166 to 167 °C'),
  ('O=C(Nc1cccc(Cl)c1)Nc1ccno1', '159 °C (dec.)'),
  ('O=C(NCc1ccccc1)Nc1ccno1', '128 to 130 °C');

Here's the next entry for you.
Report melting point for O=C(Nc1ccc(Br)cc1)Nc1ccno1 please. 183 to 184 °C
